- measurement notes: Toxicity in male C57BL/6 mouse assessed as prolongation of bleeding time at 10 mg/kg, po measured after 1.5 hrs by tail bleeding assay
- Type: organism-based
- experimental context: in vivo
observed property: Activity

{"compound": "COc1ncc2c(-c3nc4cc(F)c5c(c4s3)C[C@H](COC(=O)Nc3cccc(C#N)c3)O5)cc(C)cc2n1", "value reported": "Non-toxic"}
{"compound": "COC(=O)[C@H](c1ccccc1Cl)N1CCc2sccc2C1 [CLOPIDOGREL]", "value reported": "Toxic"}
{"compound": "COc1ncc2c(-c3nc4cc(F)c5c(c4s3)C[C@H](COC(=O)Nc3cc(F)cc(C#N)c3)O5)cc(C)cc2n1", "value reported": "Non-toxic"}
{"compound": "COc1cc(Cl)c2nc(-c3cc(C)cc4c(=O)n(C)cnc34)sc2c1", "value reported": "Non-toxic"}
